assay: soluble on expression in E. coli; label from the status in PepcDB or PDB records
measurement kind: soluble on expression in E. coli

MSTIDFRPYGGFIFDMDGTLIDTMPAHLAAWQATADRFDFPFCQEWLHSLGGMPSFKIVAELNRHYGLSLDPQTVSKFKMETFAAMELQGDVIQCTGIVLEEYLGQKKIAVGTGSQRESAMRLLSHAGLIDRLDAVVTASDVENHKPCPDTFLLAADRLGIDAQNCLVFEDTELGKRAAHSAGMDCVMVEGNNLVFYPKR not soluble
MGSDKIHHHHHHMYCMEKCVENYFVLNEEIKDKKTFDGNFVENGKSLYEVIRIIDGIPLFLGNHIKRLENSFKIEKLSFPVSLDNIKQNIFKLIEANKCEVGNVKLVFNYFENKCDFYGYFVQHKYPDEYDYINGVKTILYHGERSNPNAKVINLNFRKNVDKKIKEKGVFEAILVDRNGNITEGSKSNIFMVKSNTVYTAPVEDVLPGITREIIVEICKQCGYTVVDEKINYKKIDQFEGLFISGTSPKVLPICQVDDIKFNSQGTEMIRNIRKAYDDYISNYIKNFDSRS not soluble
